Would you kindly list % inhibition apPOL 180' for each of these molecules?
- Target Under Test: P. falciparum apicoplast DNA polymerase (Pf-apPOL) (Plasmodium falciparum, UniProt Q8ILY1)
- Sequence (Q8ILY1 entry or part of it): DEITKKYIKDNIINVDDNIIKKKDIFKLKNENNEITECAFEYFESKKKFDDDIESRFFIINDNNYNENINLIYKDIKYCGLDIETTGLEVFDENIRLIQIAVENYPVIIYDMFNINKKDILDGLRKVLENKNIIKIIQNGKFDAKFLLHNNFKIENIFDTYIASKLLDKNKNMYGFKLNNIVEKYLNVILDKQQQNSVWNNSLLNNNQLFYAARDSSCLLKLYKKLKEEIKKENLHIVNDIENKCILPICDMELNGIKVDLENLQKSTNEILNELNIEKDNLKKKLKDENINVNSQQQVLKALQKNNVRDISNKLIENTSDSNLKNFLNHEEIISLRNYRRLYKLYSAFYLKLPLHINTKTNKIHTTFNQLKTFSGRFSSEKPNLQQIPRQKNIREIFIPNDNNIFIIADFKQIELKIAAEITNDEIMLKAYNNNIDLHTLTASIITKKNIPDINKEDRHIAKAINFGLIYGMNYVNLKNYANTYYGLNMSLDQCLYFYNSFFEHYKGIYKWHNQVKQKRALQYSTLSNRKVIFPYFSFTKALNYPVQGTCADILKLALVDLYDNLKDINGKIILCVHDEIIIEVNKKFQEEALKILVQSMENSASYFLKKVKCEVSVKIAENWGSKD
- Test Details: Fluorescence-based high-throughput DNA polymerase assay (molecular beacon), primary screen and dose-response;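 as to % inhibition apPOL 180': test concentration in µM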
- Type: biochemical
- Condition Info: DRC-1; concentration 80; 180'
Give bare numbers, in %.

Nc1ncnc(NC2CCCCC2)c1[N+](=O)[O-] [KU0193018] | 91.4179
O=C1c2ccccc2C(=O)c2c1oc1c3c(ccc21)OCN(C1CCCC1)C3 [KU0064306] | 92.3974

We now examine a further molecule.
**Q:** Give recorded % inhibition apPOL 180' with P. falciparum apicoplast DNA polymerase (Pf-apPOL) (Plasmodium falciparum, UniProt Q8ILY1) for the following molecule: O=C(Nc1c2c(nn1-c1ccccc1)CSC2)c1ccco1 [KU0055213]
**A:** 88.3514

----------
Could you please report measured % inhibition Apo pol 5' 20 for the items listed next?
- Target Under Test: P. falciparum apicoplast DNA polymerase (Pf-apPOL) (Plasmodium falciparum, UniProt Q8ILY1)
- Test Details: Fluorescence-based high-throughput DNA polymerase assay (molecular beacon), primary screen and dose-response
- Type: biochemical
- Condition Info: DRC-2; read at 5'; concentration 20
Give bare numbers, in %.

Consider the reported % inhibition Apo pol 5' 20 for these compounds:
O=C(c1ccccc1)N1CCc2c(nc3cc(-c4ccccc4)[nH]n3c2=O)C1 | 50
CCCc1ccc(Oc2coc3cc(OC)ccc3c2=O)cc1 | 17
COc1ccccc1CC(=O)N1CCc2c(nc3cc(-c4ccccc4Cl)[nH]n3c2=O)C1 | 49

Please look at the items below and tell me % inhibition Apo pol 5' 20 for each one, in order.
1. COc1ccc(/C=C/c2cc(C(=O)O)c3ccccc3n2)cc1
2. CC(C)CC(C(=O)O)N1C(=O)C2C3C=CC(C2C1=O)C1C(=O)N(C(CC(C)C)C(=O)O)C(=O)C31 (stereo not shown)
3. C#CC(C=CC)OC(=O)c1ccccc1C(=O)O (stereo not shown)
4. CC(=O)Nc1cc(C(=O)c2cccs2)nn(-c2ccc(Cl)cc2)c1=O

**A:**
1. 38
2. 13
3. 50
4. 29

----------
- Target Under Test: bacteriophage T4 DNA polymerase (Enterobacteria phage T4)
- Construct: made in house
- Sequence (P04415 whole entry): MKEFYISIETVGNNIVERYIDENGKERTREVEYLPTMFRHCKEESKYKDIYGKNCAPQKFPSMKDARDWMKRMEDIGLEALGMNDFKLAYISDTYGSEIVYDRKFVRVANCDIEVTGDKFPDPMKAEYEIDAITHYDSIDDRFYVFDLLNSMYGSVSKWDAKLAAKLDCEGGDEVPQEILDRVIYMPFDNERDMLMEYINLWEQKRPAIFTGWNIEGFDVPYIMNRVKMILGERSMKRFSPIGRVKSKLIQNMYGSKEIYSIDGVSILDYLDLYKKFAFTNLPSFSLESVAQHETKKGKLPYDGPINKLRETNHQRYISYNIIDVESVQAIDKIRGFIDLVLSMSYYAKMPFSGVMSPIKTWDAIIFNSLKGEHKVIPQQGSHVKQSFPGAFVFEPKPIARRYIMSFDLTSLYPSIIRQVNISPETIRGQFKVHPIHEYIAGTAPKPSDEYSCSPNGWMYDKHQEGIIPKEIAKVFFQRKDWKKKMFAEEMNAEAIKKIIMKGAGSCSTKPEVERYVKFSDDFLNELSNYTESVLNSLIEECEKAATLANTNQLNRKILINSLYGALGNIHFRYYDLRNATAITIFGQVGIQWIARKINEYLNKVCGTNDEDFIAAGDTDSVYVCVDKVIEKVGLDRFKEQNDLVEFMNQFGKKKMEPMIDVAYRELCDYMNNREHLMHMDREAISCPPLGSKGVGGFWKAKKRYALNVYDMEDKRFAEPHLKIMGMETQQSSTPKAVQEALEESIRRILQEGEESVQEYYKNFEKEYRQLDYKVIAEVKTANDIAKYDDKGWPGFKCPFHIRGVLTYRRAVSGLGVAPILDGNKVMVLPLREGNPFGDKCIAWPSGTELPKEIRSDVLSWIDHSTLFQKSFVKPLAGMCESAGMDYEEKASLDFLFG
- Test Details: Counter-screen against bacteriophage T4 DNA polymerase
- Type: biochemical
- Condition Info: DRC-2; read at 10'; concentration 80
Observation Type: % inhibition T4 10' 80 (%)
Numbers only, in %.

Provide each entry's % inhibition T4 10' 80 from the list below.
1. C#CC(C=CC)OC(=O)c1ccccc1C(=O)O (stereo not drawn)
2. O=C(CCc1csc(NC(=O)Nc2ccccc2)n1)Nc1nc2ccccc2s1
3. Cc1ccc(N2CCC(NC(=O)Cc3cccs3)C2=O)cc1C (stereo not drawn)

**A:**
1: 8; 2: 11; 3: 26

----------
For each of the compounds below, state its % inhibition Apol 90' 5.
- Target Under Test: P. falciparum apicoplast DNA polymerase (Pf-apPOL) (Plasmodium falciparum, UniProt Q8ILY1)
- Test Details: Fluorescence-based high-throughput DNA polymerase assay (molecular beacon), primary screen and dose-response
- Type: biochemical
- Condition Info: DRC-1; read at 90'; concentration 5
Numbers only, in %.

COc1ccccc1CC(=O)N1CCc2c(nc3cc(-c4ccccc4Cl)[nH]n3c2=O)C1 | 2.19
Cn1nc(-c2nnc(-c3ccccc3F)o2)c2c1CCN(C(=O)c1ccccc1Cl)C2 | 35

Give me % inhibition Apol 90' 5 for each of these compounds, listed below.
1. CCCc1ccc(Oc2coc3cc(OC)ccc3c2=O)cc1
2. Nc1cc(Oc2ccc(O)c(N)c2)ccc1O
3. Cc1ccc(N2CCC(NC(=O)Cc3cccs3)C2=O)cc1C (centres unmarked)

**A:**
[11.6391, 16.785, 4.8282]

For each of the items listed, what is its % inhibition Apol 90' 5?
1. N#Cc1c(O)nc(N2CCCCC2)nc1-c1ccc2c(c1)OCO2
2. O=C(c1ccccc1)N1CCc2c(nc3cc(-c4ccccc4)[nH]n3c2=O)C1
3. Cn1nc(-c2nc(-c3ccccc3)no2)c2c1CCN(C(=O)Cc1cccs1)C2

**A:**
[16.8272, 3.579, 2.41]

Hello, the source for this data is paper PMC9090415, in case you need it.
